Every entry's value here was drawn from patent US8389557B2.

OUTCOME_MEASURE: melting point

- COMPOUND: "Cc1cccc(C(=O)n2nc(Nc3cccc(OCC#N)c3)nc2N)c1 [(Ia-9)]"
  ASSAY_RESULT: "220 to 224.4 °C"
- COMPOUND: "Cc1cccc(C(=O)n2nc(Nc3cccc(OCCN4CCOCC4)c3)nc2N)c1 [(Ia-27)]"
  ASSAY_RESULT: "60 to 63 °C"
- COMPOUND: "CC(C)Oc1cccc(C(=O)n2nc(Nc3cccc(O)c3)nc2N)c1 [(Ia-16)]"
  ASSAY_RESULT: "211.3 to 214.8 °C"
- COMPOUND: "CC(C)Oc1ccc(C(=O)n2nc(Nc3cccc(OCc4ccccc4)c3)nc2N)cc1 [(Ia-25)]"
  ASSAY_RESULT: "188.7 to 189.9 °C"
- COMPOUND: "Cc1cccc(C(=O)n2nc(Nc3cccc(OCC(=O)NCCN4CCOCC4)c3)nc2N)c1 [(Ia-18)]"
  ASSAY_RESULT: "145 to 147 °C"
- COMPOUND: "CC(C)Oc1ccc(C(=O)n2nc(Nc3cccc(O)c3)nc2N)cc1 [(Ia-13)]"
  ASSAY_RESULT: "204.2 to 211.9 °C"
- COMPOUND: "CNCc1cc2cc(Nc3nc(N)n(C(=O)c4cccc(C)c4)n3)ccc2o1 [(Ia-29)]"
  ASSAY_RESULT: "128 to 131 °C"
- COMPOUND: "C=CCN(C)Cc1cc2cc(Nc3nc(N)n(C(=O)c4cccc(C)c4)n3)ccc2o1 [(Ia-28)]"
  ASSAY_RESULT: "128 to 131 °C"
- COMPOUND: "CC(C)Oc1cccc(C(=O)n2nc(Nc3cccc(OCc4ccccc4)c3)nc2N)c1 [(Ia-17)]"
  ASSAY_RESULT: "131.1 to 132.4 °C"
- COMPOUND: "CC(C)Oc1ccc(C(=O)n2nc(Nc3ccc(O)cc3)nc2N)cc1 [(Ia-11)]"
  ASSAY_RESULT: "229 to 234 °C"
- COMPOUND: "Cc1cccc(C(=O)n2nc(Nc3cccc(OCC(=O)N4CCNCC4)c3)nc2N)c1 [(Ia-20)]"
  ASSAY_RESULT: "169 to 171 °C"
- COMPOUND: "Nc1nc(Nc2ccccc2)n(C(=O)/C=C/c2ccco2)n1 [compound 140]"
  ASSAY_RESULT: "190 to 193 °C"

* * *

- TESTED_TARGET: Axl (Homo sapiens)
- Construct: endogenous in cells; host or cells: HeLa cells
- Sequence (P30530 26-894): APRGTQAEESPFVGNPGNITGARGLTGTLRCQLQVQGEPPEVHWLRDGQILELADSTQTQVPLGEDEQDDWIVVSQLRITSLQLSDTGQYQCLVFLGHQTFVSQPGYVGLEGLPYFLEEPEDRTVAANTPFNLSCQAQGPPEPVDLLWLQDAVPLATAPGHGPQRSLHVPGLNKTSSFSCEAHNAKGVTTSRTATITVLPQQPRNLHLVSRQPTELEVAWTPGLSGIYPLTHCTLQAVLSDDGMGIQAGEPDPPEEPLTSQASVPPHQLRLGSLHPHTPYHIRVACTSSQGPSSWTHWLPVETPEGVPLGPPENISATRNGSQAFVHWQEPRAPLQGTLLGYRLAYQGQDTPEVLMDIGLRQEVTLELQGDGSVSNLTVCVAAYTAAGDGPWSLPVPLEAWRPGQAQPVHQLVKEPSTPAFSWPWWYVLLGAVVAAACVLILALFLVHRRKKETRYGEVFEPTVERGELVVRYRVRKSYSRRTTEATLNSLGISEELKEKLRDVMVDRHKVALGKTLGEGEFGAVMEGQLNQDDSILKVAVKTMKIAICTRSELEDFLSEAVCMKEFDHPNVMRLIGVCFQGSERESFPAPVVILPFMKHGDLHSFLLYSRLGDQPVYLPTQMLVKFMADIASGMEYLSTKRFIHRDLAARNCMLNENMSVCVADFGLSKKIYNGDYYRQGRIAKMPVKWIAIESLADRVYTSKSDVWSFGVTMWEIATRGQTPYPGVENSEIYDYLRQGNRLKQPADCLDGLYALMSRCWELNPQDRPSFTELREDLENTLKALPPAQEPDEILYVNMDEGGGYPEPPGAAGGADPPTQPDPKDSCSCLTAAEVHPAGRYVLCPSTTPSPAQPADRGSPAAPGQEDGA
- ASSAY_PROTOCOL: Phospho-Akt in-cell Western assay (inhibition of Axl activity)
- Format: cell-based
- EXPERIMENTAL_CONDITIONS: Table 6; Hela cells, Axl antibody cross-linking stimulation, phospho-Akt chemiluminescence
pIC50: −log10 of the molar value.
Attribute: pIC50

- MOLECULE: "CC(C)Oc1ccc(C(=O)n2nc(N)nc2NC2C3C=CC(C3)C2C(N)=O)cc1 (stereo not shown)"
  pIC50: "< 4.70"
- MOLECULE: "CN(C)c1ccc(C(=O)n2nc(N)nc2NC2CCN(S(C)(=O)=O)CC2)cc1"
  pIC50: "< 4.70"
- MOLECULE: "CS(=O)(=O)N1CCC(Nc2nc(N)nn2C(=O)c2c(F)cccc2F)CC1"
  pIC50: "< 4.70"
- MOLECULE: "Cc1cccc(C(=O)n2nc(N)nc2Nc2ccc3c(c2)N(C(=O)OC(C)(C)C)CCO3)c1"
  pIC50: "< 4.70"

* * *

Attribute: pIC50
- TESTED_TARGET: Axl (Homo sapiens)
- Construct: endogenous in cells; host or cells: HeLa cells
- Sequence (P30530 26-894): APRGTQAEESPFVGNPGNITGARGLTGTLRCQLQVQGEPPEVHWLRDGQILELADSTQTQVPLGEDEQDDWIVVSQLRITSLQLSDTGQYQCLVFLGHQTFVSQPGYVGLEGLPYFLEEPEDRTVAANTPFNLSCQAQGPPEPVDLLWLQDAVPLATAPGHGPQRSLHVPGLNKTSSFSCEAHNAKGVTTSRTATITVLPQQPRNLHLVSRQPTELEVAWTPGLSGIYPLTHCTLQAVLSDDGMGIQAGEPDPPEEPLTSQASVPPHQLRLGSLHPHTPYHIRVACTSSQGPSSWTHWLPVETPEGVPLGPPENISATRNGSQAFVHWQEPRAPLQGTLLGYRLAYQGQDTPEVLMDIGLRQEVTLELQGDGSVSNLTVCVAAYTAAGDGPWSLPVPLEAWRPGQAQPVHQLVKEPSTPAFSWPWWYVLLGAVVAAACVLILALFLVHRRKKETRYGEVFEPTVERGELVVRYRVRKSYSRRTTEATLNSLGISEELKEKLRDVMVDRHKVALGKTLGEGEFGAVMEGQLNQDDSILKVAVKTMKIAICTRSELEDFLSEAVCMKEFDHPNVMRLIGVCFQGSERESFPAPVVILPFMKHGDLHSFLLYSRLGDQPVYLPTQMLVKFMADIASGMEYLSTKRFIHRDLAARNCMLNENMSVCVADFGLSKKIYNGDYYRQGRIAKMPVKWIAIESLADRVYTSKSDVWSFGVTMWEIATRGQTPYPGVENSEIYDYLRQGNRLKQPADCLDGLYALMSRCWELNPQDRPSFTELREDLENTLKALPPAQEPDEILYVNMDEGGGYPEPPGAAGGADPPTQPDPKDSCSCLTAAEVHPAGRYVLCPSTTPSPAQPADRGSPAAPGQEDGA
- ASSAY_PROTOCOL: Phospho-Akt in-cell Western assay (inhibition of Axl activity)
- Format: cell-based
- EXPERIMENTAL_CONDITIONS: inhibition of Axl activity, phospho-Akt in-cell Western assay; Table 1
pIC50: −log10 of the molar value.

- COMPOUND: "CC(C)(C)OC(=O)Nc1ccc(C(=O)n2nc(Nc3ccc(OCCN4CCCC4)cc3)nc2N)cc1 [compound 270]"
  pIC50: "> 6.00"
- COMPOUND: "Nc1nc(Nc2ccc(OCCN3CCCC3)cc2)nn1C(=O)c1cccc(OC(F)(F)F)c1 [compound #7]"
  pIC50: "> 6.00"
- COMPOUND: "COc1ccc(C(=O)n2nc(Nc3ccc(OCCN4CCCC4)cc3)nc2N)cc1OC [compound 198]"
  pIC50: "< 4.70"
- COMPOUND: "CN1CCN(c2ccc(C(=O)n3nc(Nc4ccc(OCCN5CCCC5)cc4)nc3N)cc2)CC1 [compound 383]"
  pIC50: "> 6.00"
- COMPOUND: "CC(C)(C)Oc1cccc(C(=O)n2nc(Nc3ccc(OCCn4ccnc4)cc3)nc2N)c1 [compound 371]"
  pIC50: "5.00 to 6.00"
- COMPOUND: "CC(C)Oc1ccc(C(=O)n2nc(Nc3ccc(OCCN4CCCC4)c(F)c3)nc2N)cc1 [compound 307]"
  pIC50: "> 6.00"
- COMPOUND: "COc1cccc(C(=O)n2nc(Nc3ccc(OCCN4CCCC4)cc3)nc2N)c1 [compound #14]"
  pIC50: "> 6.00"
- COMPOUND: "CC(C)(C)Oc1cccc(C(=O)n2nc(Nc3ccc(OCCCN4CCCC4)cc3)nc2N)c1 [compound #24]"
  pIC50: "> 6.00"
- COMPOUND: "Cc1ccc(C(=O)n2nc(Nc3ccc(OCCCN(C)C)cc3)nc2N)cc1 [compound 91]"
  pIC50: "5.00 to 6.00"
- COMPOUND: "Cc1cc(C)cc(C(=O)n2nc(Nc3ccc4c(c3)OCCO4)nc2N)c1 [compound 239]"
  pIC50: "5.00 to 6.00"
- COMPOUND: "CC(C)(C)Oc1ccc(C(=O)n2nc(Nc3ccc(OCCN4CCCC4)cc3)nc2N)cc1 [compound #1]"
  pIC50: "> 6.00"
- COMPOUND: "Nc1nc(Nc2ccccc2)nn1C(=O)c1ccc(N2CCOCC2)cc1 [compound 335]"
  pIC50: "< 4.70"
- COMPOUND: "CC(C)(C)Oc1ccc(C(=O)n2nc(Nc3ccccc3)nc2N)cc1 [compound 341]"
  pIC50: "5.00 to 6.00"
- COMPOUND: "Nc1nc(Nc2ccc(OCCN3CCCC3)cc2)nn1C(=O)c1ccc2c(c1)OCCO2 [compound #17]"
  pIC50: "> 6.00"
- COMPOUND: "CN1CCN(c2ccc(Nc3nc(N)n(C(=O)c4ccc(N(C)C)cc4)n3)cc2)CC1 [compound 361]"
  pIC50: "> 6.00"
- COMPOUND: "COc1cc(Nc2nc(N)n(C(=O)c3ccc(OC(C)(C)C)cc3)n2)ccc1OCCN1CCCC1 [compound 317]"
  pIC50: "> 6.00"
- COMPOUND: "CN1CCN(c2ccc(Nc3nc(N)n(C(=O)c4cccc(OC(C)(C)C)c4)n3)cc2)CC1 [compound 358]"
  pIC50: "> 6.00"
